# method notes: soluble on expression in E. coli; label from the status in PepcDB or PDB records
readout name: soluble on expression in E. coli

Completed entries (count: 4):
| sequence record | soluble on expression in E. coli |
| --- | --- |
| MGSDKIHHHHHHMTSMEFKIKRDGLALQARLETPAAPSSTLVILMHGFTADMGYDTTQFVPQLAQALVAHGLAVLRFDFNGHGCSEGRFQDMTVINEIADAKAVLDEALTLHYDHIVLAGHSQGGVVASMLAGYYPDVVDKLILMAPAATLKSDAQQGVLQGATYDPQHIPAYLNIRDGLKVGGFYLRTAQQLPIYEVAQQYAGSVTLIHVTADTVVSPQASEKYHEVYQHSQLHWVQDGGHRFSGDARATAIQLALAAFK | not soluble |
| MHVTLVEINVHEDKVDEFIEVFRQNHLGSVQEEGNLRFDVLQDPEVNSRFYIYEAYKDEDTVAFHKTTPHYKTCVAKLESLMTGPRKKRLFNGLMP | not soluble |
| MGHHHHHHSHMEEAGSVALEELVEKEKDRFFSGVDYIVISDNLWISQRKPAITYGTRGNSYFMVEVKCRDQDFHSGTFGGILHEPMADLVALLGSLVDSSGHILVPGIYDEVVPLTEEEINTYKAIHLDLEEYRNSSRVEKFLFDTKEEILMHLWRYPSLSIHGIEGAFDEPGTKTVIPGRVIGKFSIRLVPHMNVSAVEKQVTRHLEDVFSKRNSSNKMVVSMTLGLHPWIANIDDTQYLAAKRAIRTVFGTEPDMIRDGSTIPIAKMFQEIVHKSVVLIPLGAVDDGEHSQNEKINRWNYIEGTKLFAAFFLEMAQLH | not soluble |
| MGSDKIHHHHHHMTWSATWRLSLELRQLRYLVGVVDAGSVSRAAQSLHVAQPALSAQIARLEEELGARLLIRSVRGVVPTEAGTAVLRQARLILKQVDAIAELAHEADADPTGSVSLGLPWTVRSVVGLPLLHQVRERLPQVRLEIIEGPSPALAMQTAQGKLDLAVVFENTPDNSLVLKPLATESLLLVGQRGSLVGRHNLKLEELAGLPLLMLSRPNGVREDIERQCAKRGIRLKIVAEINAPSLLIDAVRGGLGYSVLPACGIEQACRDGLLDAITLEGGSMQRTAHLGTSKLFALSRAAEHTAALLQESVAHAIGDRRWQATSPNEAD | not soluble |

Query sequence follows.
For the sequence MAKPPPGKSSGRGSINDDEGKIEVESGDIPHVTDTEIKDAAEKVRETAVSKGKSERDKAEGDYTIMNPDSMIRPDFASDEEIEEQAKWIPGRFEPYITPNPLDIETLVKRADTIATVFNCSGNNLTDSRLSGAYEIAMTRSDEWEGKAGENFEKYMASLPTIMGNHGKVANMLQIEAQKMIELYKNRRKGAKDIADQAVKAIEAIDDSKGEGLE , what soluble on expression in E. coli is on record?
not soluble
